- System: SEM cells
- PROTOCOL DESCRIPTION: cell viability relative to DMSO control; higher = less cytotoxic
- EXPERIMENTAL CONTEXT: RPMI 5 mM glucose + 10% dialyzed FBS; 48 h; 0.00234 µM
MEASUREMENT NAME: cell viability (%)
Write the answer as a number in %, unit excluded.

Data request, read-out cell viability, for "CC1(C)CCC(=C(\C1)C2=CC=C(Cl)C=C2)/CN3CCN(CC3)C4=CC(=C(C=C4)C(=O)N[S+]([O-])(=O)C5=CC=C(NCC6CCOCC6)C(=C5)[N+]([O-])=O)OC7=CN=C8[NH]C=CC8=C7" 90.8

Data request, read-out cell viability, for "COc1cc([C@@H]2c3cc4c(cc3[C@@H](O[C@@H]3O[C@@H]5CO[C@@H](C)O[C@H]5[C@H](O)[C@H]3O)[C@H]3COC(=O)[C@H]23)OCO4)cc(OC)c1O" 76

Data request, read-out cell viability, for O=P1(NCCCl)OCCCN1CCCl (stereo not drawn) 86

Values compiled from the supplement of paper PMC11451515.
